Entry source: ChEMBL document CHEMBL3098084

Target: Cannabinoid receptor 2 (Homo sapiens, UniProt P34972)
Sequence (P34972 whole entry): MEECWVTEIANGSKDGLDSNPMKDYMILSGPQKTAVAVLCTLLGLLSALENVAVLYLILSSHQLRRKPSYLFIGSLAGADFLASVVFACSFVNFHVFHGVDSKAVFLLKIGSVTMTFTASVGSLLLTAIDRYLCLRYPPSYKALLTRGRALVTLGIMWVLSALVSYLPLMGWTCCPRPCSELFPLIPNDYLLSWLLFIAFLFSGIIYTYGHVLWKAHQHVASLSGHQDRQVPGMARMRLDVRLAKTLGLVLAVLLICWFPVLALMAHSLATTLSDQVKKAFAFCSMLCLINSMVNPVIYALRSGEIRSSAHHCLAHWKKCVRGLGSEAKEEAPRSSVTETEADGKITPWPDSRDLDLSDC
Assay: Agonist activity at human CB2 receptor expressed in CHO CRE-luc cells
Type: functional, cell-based
pEC50: −log10 of the molar value.
Quantity Kind: pEC50

{"columns": ["Smiles Str", "Target Or System", "Measured Result"],
 "data": [
  ["CC(C)(O)c1cc(-c2nc(NCCc3ccc(F)cc3)nc(OCF)n2)ccc1Cl", "Cannabinoid receptor 2 (Homo sapiens, UniProt P34972)", 9.11]
]}

====

Assay: Drug metabolism in baboon neuroinflammation model plasma assessed as compound remaining at 110 +/- 34 MBq, iv administered 180 mins post LPS-challenge by HPLC analysis
Format: ADME, organism-based
Conditions: papio anubis, read-out: Stability
Quantity Kind: remaining at 3 h (%)

{"columns": ["Smiles Str", "Measured Result"],
 "data": [
  ["[2H]C([2H])([18F])Oc1nc(NCCc2ccc(F)cc2)nc(-c2ccc(Cl)c(C(C)(C)O)c2)n1", 15]
]}

====

Biological target: Cannabinoid receptor 1 (Homo sapiens)
Sequence (P21554 whole entry): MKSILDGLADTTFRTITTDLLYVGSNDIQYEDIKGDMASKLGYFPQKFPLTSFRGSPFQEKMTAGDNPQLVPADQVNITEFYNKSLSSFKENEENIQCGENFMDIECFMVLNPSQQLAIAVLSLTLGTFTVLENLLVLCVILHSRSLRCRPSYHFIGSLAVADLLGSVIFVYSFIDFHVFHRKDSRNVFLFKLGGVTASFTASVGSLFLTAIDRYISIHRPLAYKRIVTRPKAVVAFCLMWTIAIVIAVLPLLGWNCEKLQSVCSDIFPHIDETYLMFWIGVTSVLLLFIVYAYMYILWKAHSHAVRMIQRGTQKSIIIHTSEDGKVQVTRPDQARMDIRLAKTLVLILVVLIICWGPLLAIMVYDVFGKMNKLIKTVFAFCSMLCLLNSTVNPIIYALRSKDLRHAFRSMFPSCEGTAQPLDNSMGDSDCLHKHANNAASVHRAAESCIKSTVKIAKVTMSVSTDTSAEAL

{"columns": ["Smiles Str", "IC50"],
 "data": [
  ["COc1nc(NCCc2ccc(F)cc2)nc(-c2ccc(Cl)c(C(C)(C)O)c2)n1", "0.3 µM"]
]}

====

Biological target: Cannabinoid receptor 2 (Homo sapiens, UniProt P34972)
Experiment: Binding affinity to human CB2 receptor expressed in CHO cells
Format: cell-based
pIC50: −log10 of the molar value.

{"columns": ["Smiles Str", "Target Or System", "pIC50"],
 "data": [
  ["CC(C)(O)c1cc(-c2nc(NCCc3ccc(F)cc3)nc(OCF)n2)ccc1Cl", "Cannabinoid receptor 2 (Homo sapiens, UniProt P34972)", 8.85]
]}
